system: apical domain of CD71 (Screen 3: 'cynomolgus apical domain of human CD71') (cynomolgus (as paragraph 454 words it; ambiguous))
test.name: primary ELISA
# RLU annotations
readout.label: RLU (RLU)

- CD71-binding FN3 domain SEQ ID NO: 236 (designed binder) MSLPAPKNLVVSRVTEDSARLSWTEPDAAFDSFEIGYFENLYLGEAIVLTVPGSERSYDLTGLKPGTEYWVQIGGVKGGNWSAPLSAIFTT: 5.32e+06
- CD71-binding FN3 domain SEQ ID NO: 322 (designed binder) MSLPAPKNLVVSRVTEDSARLSWTAPDAAFDSFEIGYFEITRYGEAIILFVPGSERSYDLTGLKPGTEYWVQIGGVKGGNWSAPLSAIFTT: 4.99e+06
- CD71-binding FN3 domain SEQ ID NO: 249 (designed binder) MSLPAPKNLVVSRVTEDSARLSWTAPDAAFDSFEIGYWENAYRGEAIVLTVPGSERSYDLTGLKPGTEYVVFIGGVKGGVWSVPLSAIFTT: 4.81e+06
- CD71-binding FN3 domain SEQ ID NO: 315 (designed binder) MSLPAPKNLVVSRVTEDSARLSWTAPDAAFDSFEIGYFENLYLGEAIVLTVPGSERSYDLTGLKPGTEYWVQIGGVKGGNWSAPLSAISTT: 4.4e+06
- CD71-binding FN3 domain SEQ ID NO: 259 (designed binder) MSLPAPKNLVVSRVTEDSARLSWTAPDAAFDSFYIAYAEPRPDGEAILLEVPGSERSYDLTGLKPGTEYSVLIHGVKGGLLSSPLSATFTT: 5.16e+06
- CD71-binding FN3 domain SEQ ID NO: 282 (designed binder) MSLPAPKNLVVSRVTEDSARLSWTAPDAAFDSFDIGYFELTWYGEAIVLTVPGSERSYDLTGLKPGTEYWVSIGGVKGGRFSEPLYARFTT: 4.85e+06
- CD71-binding FN3 domain SEQ ID NO: 296 (designed binder) MSLPAPKNLVVSRVTEDSARLSWTAPDAAFDSFDIGYFELTWYGEAIVLTVPGSERSYDLTGLKPGTEYWVSIGGVKGGIWSSPLSAIFTT: 4.82e+06
- CD71-binding FN3 domain SEQ ID NO: 262 (designed binder) MSLPAPKNLVVSRVTEDSARLSWTAPDAAFDSFFIGYLEPQPPGEVIHLFVPGSERSYDLTGLKPGTEYNVTIQGVKGGFPSDPLVASFTT: 7.2e+06
- CD71-binding FN3 domain SEQ ID NO: 237 (designed binder) MSLPAPKNLVVSRVTEDSARLSWTAPDAAFDSFEIAYFERTWFGEAIVLTVPGSERSYDLTGLKPGTEYWVQIGGVKGGDWSKPLSAIFTT: 5.01e+06
